Measured values drawn from patent US9481688B2 for this set.

# Target or system: 5-HT6 (Homo sapiens (Human), UniProt P50406)
# Sequence (P50406 whole entry, species assumed): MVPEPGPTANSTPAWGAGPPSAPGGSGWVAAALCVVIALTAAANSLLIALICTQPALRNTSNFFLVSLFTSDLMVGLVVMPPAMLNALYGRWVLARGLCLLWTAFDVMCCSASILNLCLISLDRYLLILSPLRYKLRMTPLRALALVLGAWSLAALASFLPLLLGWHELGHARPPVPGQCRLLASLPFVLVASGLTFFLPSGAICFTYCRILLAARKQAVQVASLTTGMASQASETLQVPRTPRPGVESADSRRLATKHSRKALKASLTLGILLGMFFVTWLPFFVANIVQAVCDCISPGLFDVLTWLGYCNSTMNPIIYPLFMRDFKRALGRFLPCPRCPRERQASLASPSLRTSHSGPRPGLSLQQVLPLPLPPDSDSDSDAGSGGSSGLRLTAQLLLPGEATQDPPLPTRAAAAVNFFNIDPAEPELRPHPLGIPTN
pKi: −log10 of the molar value. Counter-ions that a name gives are not always drawn.
Experimental readout: pKi

# value of pKi, 5-HT6 (Homo sapiens (Human), UniProt P50406), item Cc1ccc2c(c1)Oc1sc(Cl)cc1C(N1CCN(CC(C)(C)C(=O)O)CC1)=N2 [Example 3, dihydrochloride] = < 5.23

---

# Target or system: recombinant 5-HT2A receptor (human) (Homo sapiens (Human), UniProt P28223)
# Method: 5-HT2A competition binding assay ([3H]-Ketanserin, SPA)
# Condition parameters: dihydrochloride
Structures can show the parent of a compound that is named as a salt.
Experimental readout: Ki (nM)
Field format: number, assumed nM, no unit text.

Form: compound = Cc1ccc2c(c1)Oc1sc(Cl)cc1C(N1CCN(CC(C)(C)C(=O)O)CC1)=N2 [Example 3, dihydrochloride] ; Ki = 7.01
